# test.conditions: in MIBK, 283.2 K
test.readout: solubility (mole fraction)

Data request, read-out solubility (mole fraction), for C[C@H]1[C@H](C)CC[C@]2(C(=O)O)CC[C@]3(C)C(=CC[C@@H]4[C@@]5(C)CC[C@H](O)C(C)(C)[C@@H]5CC[C@]43C)[C@H]12 0.00104

* * *

# test.conditions: in MTBE, 293.2 K
test.readout: solubility (mole fraction)
A bare number is all that is needed in reply.

Data request, read-out solubility (mole fraction), for C[C@H]1[C@H](C)CC[C@]2(C(=O)O)CC[C@]3(C)C(=CC[C@@H]4[C@@]5(C)CC[C@H](O)C(C)(C)[C@@H]5CC[C@]43C)[C@H]12 0.00248

Cited source for all entries: BigSolDB 2.1
